METHOD_NOTES: yeast display, Sf9 membrane polyspecificity reagent, FACS + sequencing; frameworks hold sequencing errors

SEQUENCE_INPUT	polyreactivity (PSR sort gate)
QVHLVESGGGLVQAGGSLRLSCAASGRIFRQYAMGWYRQAPGKERELVAAISYSGGSTYYADSVKGRFTISRDYAKNTVYFQMNSLKPEDTAVYYCAATRWVPATGKFGYWGQGTQVTVSS	high polyreactivity
QVQLVESGGGLVQAGGSLRLSCAASGSTFWYNGMGWYRQAPGKERELVAAINWSGDSTYYADSVKGRFTISRDNAKNTVYLQMNSLKPEDTAVFYCAGGYYTYSRRSSFFVAYGYWGLGTQVTVSS	low polyreactivity
QVQLVESGGGLVQAGGSLRLSCAASGSTFAGNEMGWYRQAPGKERELVAAITFSGGRTDYADSVKGRFTISRDNAKNTVYFQINCLKPEDTAVYDCAAPADDTVHYQNYYWGQGTQVSVSS	low polyreactivity
QVQLVESGGGLVQAGGSLRLSCAATGRTFQFNAMGRYRQAPGKERELVAAITSNGGSTNYADSVKGRFTISRDNAKNTVYVQMNSLKPEDTAVYYSAAPRFRYYYWDMDYWGQGTQVTVSS	low polyreactivity
QVQLVESGGGLVQAGGSLRLSCAASGITFGSYAMGWYRQAPGKEREFVAAISLSGGNTYYADSEKGRFTISRDNAKNPVYLQMNSLKPEDTAVYYCAADPFSSYYKMEYWGQGTQVTVSS	high polyreactivity

###

METHOD_NOTES: yeast display, Sf9 membrane polyspecificity reagent, FACS + sequencing; frameworks hold sequencing errors
REPORTED_METRIC: polyreactivity (PSR sort gate)

SEQUENCE_INPUT	VALUE
QVQLVESGGGLVQAGGSLRLSCAASGFTFVFNARAWYRQAPGKERELVATITNGGSTYYADSVKGRFTISRDNAKNTVYLQMNSLKPEDTAVYYCAAVRKQCSGFDYWGQGTQVTVSS	high polyreactivity
QVQLVESRGGLVQAGGSLRLSCASSGFTFSINAMGWYRQAPGNERELVASITWSGGRTYYADSVKGRFTISRDNAKNTVYLQMNSLKPEDTAVYYCAARSYGTSTYDYWGQGTQVTVSS	high polyreactivity

###

METHOD_NOTES: yeast display, Sf9 membrane polyspecificity reagent, FACS + sequencing; frameworks hold sequencing errors

SEQUENCE_INPUT	polyreactivity (PSR sort gate)
QVQLVESGGGLVQAGGSLRLTCAASGSTFTRYAMGWYRQAPGKERELVATIIFSGDRTYYADSVKGRFTISRDNAKNTVYLEMNSLKPEDTAVSYCNKYRYQWPYRRFDYWGQGTQVTVSS	high polyreactivity
QVQLVESGGGLVQAGGSLRLSCAASGRTFTVYAMGWYRQAPGKERELVAAISSGGITYYADSVKGRFTISRDNAKNTVYLQMNSLKPEDTAVYYCNTKSGKARYEFGYWGQGTQVTVSS	low polyreactivity
QVQLVESGGGLVQAGGSLRLSCAASGFTFAKYAMGWYRQAPGKERELVAAISSSGGRTYYADSVKGRFTISRDNAKNTVYLQMNSLKPEDTAVYYCAAAIRYRNYVYLYDYWGQGTQVTVSS	high polyreactivity
QVQLVESGGGLVQAGGSLRLSCAASGFIFTDYAMGWYRQATGQEREFVAAIDWSGGNTYYADSVKGRFTISRDNAKNTVYLQLNSLKPEDTAVFFCSASGSAREYDYWGQGTQVTVSS	low polyreactivity
QVQLVESGGGLVQAGGSLRLSCAASGSIFYFYAMGWYRQAPGKERELVAAISRSVGSTNYADSVKGRFTISRDNAKNTVYLQMNSLKPEDTAVYYCAARRYGAYYWGQGTQVTVSS	high polyreactivity
QVQLVESGGGLVQAGGSLRLSCAPSGSILRSYDMGWYRQAPGTERELVAAISSSGGSTYYADSVKGRFTISRDNAKNTVYLQMNSLKQEDTAVYYCAAATSRRFDYWGQGTQVTVSS	high polyreactivity
QVQLEESGGGLVQAGGSLRISCAASGFTFKYYVMGWYRQAPGKERFVAAITGSGASTYYADSVKGRFTISRDNAKNTVYLQMNSLKPEDTAVYYCNAVYYAGRYRYDYWGQGTQVTVSS	high polyreactivity
QVQLVESGGGLVQAGGRLLLSCAASGSTFTRNAMGWYRPAPGKERELVAAISSSGSRTYYADSVKGRFTISRDNAKNTVYLQMNSLIPADTAVYYCNKTKHSYLYTDDDYWGQGTQVTVSS	high polyreactivity
QVQLVESGVCLVQAGRSLPLSCAASGFTFDSNAMGWSRQAPGNESELVAAISASRDSTYYADSVKGRFTISRDNAKNTVYLQMNSLKPEETAVYYCAADSSDWPYDYWGQCTQVTVSS	low polyreactivity
QVQLVESGGGLVQAGGSLRLSCAASGSIFLDYAMGWYRQAPGKERELVAGITISGGSTYYADSVKGRFTISRDNAKNTVYLQMNSLKPEDTAVYYCAKVAPRSSSSQEYYYWGQGTQVTVSS	low polyreactivity
QVQLVESGGGLVQAGGSLRLSCAASGMIFQDNAMGWYSQAPGKERELVAAITTGGITYYADSVKGRFTISRDNAKNTVYLQMNSLKPEDTAVYYCATDPVKSGYQRYYYWGQGTQVTVSS	low polyreactivity
